Tested on: RXF 631
Experiment: NCI tumour cell line growth inhibition, 48 h
Activity calls are given as the source filed them. Cut-off read from the data, not from the text of the source: active = GI50 up to about 1.1 µM and inactive = higher.
Pick one: active, inactive

// known answers, use as guide
{"Compound": "COc1ccc(NN=C2C(=O)CCC2=O)cc1", "Measured target": "RXF 631", "Assigned category": "inactive"}
{"Compound": "CC1=C(Cl)C=CP(=O)(OC(C)C)C1 (stereo not drawn)", "Measured target": "RXF 631", "Assigned category": "inactive"}
{"Compound": "COC(=O)C1=CC(=O)[C@@H]2CCCC[C@H]12", "Measured target": "RXF 631", "Assigned category": "inactive"}
{"Compound": "C#CCOCn1cnc2c(N)ncnc21", "Measured target": "RXF 631", "Assigned category": "inactive"}
{"Compound": "CN1CCCC2(CCCc3ccccc32)C1 (stereo not drawn)", "Measured target": "RXF 631", "Assigned category": "inactive"}

Data request: What was the test verdict on O=C1C(Br)=C(Br)C(=O)c2ccccc21 ?
Data returned: inactive

Data request: What was the test verdict on CCCCCCCCCCCCCCCCOCC(CN(C)CCN(C)C)OCCCCCCCCCCCCCCCC (stereo not drawn) ?
Data returned: inactive

Data request: What was the test verdict on CCCCCCCCCCCCCCCCCC(=O)O[C@H](COC(=O)CCCCCCCCCCC)COC(=O)CCCCCCCCCCCCCCC ?
Data returned: inactive

Data request: What was the test verdict on CCCCCCCCCCCCC(=O)CCCCC(=O)O ?
Data returned: inactive

Data request: What was the test verdict on Cc1ccc(C2CC(c3ccc([N+](=O)[O-])cc3)=Nc3ccccc3S2)cc1 (stereo not drawn) ?
Data returned: inactive

Data request: What was the test verdict on C=C1C(=O)OC2/C=C(\C)C3OC3/C=C(/C(=O)OC)C(OC(C)=O)C(OC(=O)C(C)(O)C(C)OC(C)=O)C12 (stereo not drawn) ?
Data returned: inactive

Data request: What was the test verdict on C/C(=N\N=C(/S)N(C)C)c1cccc[n+]1[O-] ?
Data returned: inactive

Data request: What was the test verdict on c1ccc(-c2ccnc3c2ccc2c(-c4ccccc4)ccnc23)cc1 ?
Data returned: active

###

Test system: SR
Experiment: NCI tumour cell line growth inhibition, 48 h
Activity calls are given as the source filed them. No stated cut-off is given here; in the data, active = GI50 up to about 1.1 µM and inactive = higher.
Pick one: YES for active, NO for inactive

// known answers, use as guide
{"Molecule": "CC(=O)COC(=O)CC(C)=O", "Assigned category": "NO"}
{"Molecule": "COc1ccc2oc(S(=O)(=O)N3CC(CCl)c4ccc(N)cc43)cc2c1 (stereo unspecified)", "Assigned category": "YES"}
{"Molecule": "CCOC(=O)C(Cc1ccc2c(c1)CCC2)(Cc1ccc2c(c1)CCC2)C(=O)OCC", "Assigned category": "NO"}
{"Molecule": "CC(C)(C)C1CCC(=O)/C(=C/CC2CC(=O)N(c3ccccc3)C(=O)C2)C1 (stereo unspecified)", "Assigned category": "NO"}
{"Molecule": "Cc1cc(C)c2c(n1)S(=O)(=O)N(CCCN1CCN(c3cccc(C(F)(F)F)c3)CC1)c1c-2nn(C)c1C", "Assigned category": "NO"}
{"Molecule": "C[Si](C)(C)C#CCOC=C1CC1", "Assigned category": "NO"}
{"Molecule": "C/C(CCN(C)C)=N\\OC(=O)c1ccccc1", "Assigned category": "NO"}
{"Molecule": "CCC(C)(O)c1cnc(CC(C)C)c(=O)n1O (stereo unspecified)", "Assigned category": "NO"}

Data request: What was the test verdict on NC(=O)c1c(NC=O)ncn1C1OCC(O)C(O)C1O (stereo unspecified) ?
Data returned: NO

Data request: What was the test verdict on O=C(O)C(CO)NC(=O)C1C(C(=O)O)C(c2ccccc2[N+](=O)[O-])C=C(c2ccco2)N1c1ccncc1 (stereo unspecified) ?
Data returned: YES

Data request: What was the test verdict on C=C(C)C(=O)OC1CC2(C)OC(=CC2=O)C(C)CC2OC(=O)C(=C)C12 (stereo unspecified) ?
Data returned: NO

Data request: What was the test verdict on O=C1C(Br)=C(Br)C(=O)c2ccccc21 ?
Data returned: NO

Data request: What was the test verdict on CNc1ccc2nc(-c3ccc(OC(=O)N(C)C)cc3)cn2c1 ?
Data returned: NO

Data request: What was the test verdict on Cc1nccn1S(=O)(=O)c1ccc(Br)cc1Br ?
Data returned: NO

Data request: What was the test verdict on COC1(OC)C2C=CC1C([C@](C)(N)CO)C2 (stereo partly specified) ?
Data returned: NO

Data request: What was the test verdict on CCCCCCCCCCCCOC1C(COCCN2CCCCC2)OC2OC(C)(C)OC21 (stereo unspecified) ?
Data returned: YES

###

Kindly state GI50 for each of the entries shown.
System: K562
Assay: NCI tumour cell line growth inhibition, 48 h
Calls of active or inactive are those of the source. Rule as the data show it: active = GI50 up to about 1.1 µM and inactive = higher.

{"Compound": "COc1ccc(NC(=S)NN=C(C)c2cccc(C(C)=NNC(=S)Nc3ccc(OC)cc3)n2)cc1", "Recorded result": "31.3 µM (inactive)"}
{"Compound": "O=[N+]([O-])O [NITRIC ACID]", "Recorded result": "> 100 µM (inactive)"}
{"Compound": "O=C1OC(c2ccc(O)c(-c3ccccc3)c2)(c2ccc(O)c(-c3ccccc3)c2)c2c(Cl)c(Cl)c(Cl)c(Cl)c21", "Recorded result": "> 100 µM (inactive)"}

Report GI50 for each item below.
1. O=C1OCC2OC(=O)c3cc(O)c(O)c(O)c3-c3c(O)c(O)c(O)c4c3C(=O)OC(C2OC(=O)c2cc(O)c(O)c(O)c2-c2c1cc(O)c(O)c2O)C1OC(=O)c2c-4c(O)c(O)c(O)c2[C@@H]1C(O)C(O)C(O)C(O)CO (stereo partly drawn)
2. c1ccc(SCCCC(Sc2ccccc2)Sc2ccccc2)cc1
3. Cn1c(-c2ccccc2)cc(-c2cccs2)c1-c1ccsc1
4. CN(/N=C(\C(=O)O)c1ccccc1)C1=NCCCCN1
5. COC1OC(COC(=O)c2cc(O)c(O)c(O)c2)C(OC(=O)c2cc(O)c(O)c(O)c2)C(OC(=O)c2cc(O)c(O)c(O)c2)C1OC(=O)c1cc(O)c(O)c(O)c1 (stereo not drawn)

Data returned:
10.5 µM (inactive)
> 100 µM (inactive)
> 100 µM (inactive)
> 100 µM (inactive)
21.5 µM (inactive)

###

System: NCI-H522
Test: NCI tumour cell line growth inhibition, 48 h
Activity calls are given as the source filed them. No stated cut-off is given here; in the data, active = GI50 up to about 1.1 µM and inactive = higher.
Pick one: active, inactive

{"Molecule": "OCCN1CCN(c2nc(N3CCCC3)c3nc(Cl)c(NCc4ccccc4)nc3n2)CC1", "Assigned category": "inactive"}
{"Molecule": "Cc1ccc(S(=O)(=O)NC(=O)NC23CC4CC(CC(F)(C4)C2)C3)cc1", "Assigned category": "inactive"}
{"Molecule": "O=C1CSC2(CC(/C=C/c3ccccc3)=NN2c2cccc(S(=O)(=O)O)c2)N1c1nc2ccccc2s1 (configuration not stated)", "Assigned category": "inactive"}
{"Molecule": "c1ccc(-c2ccnc3c2ccc2c(-c4ccccc4)ccnc23)cc1", "Assigned category": "inactive"}

Data request: What was the test verdict on c1ccc2c(c1)NC(C1OC3CCCN3C1C1Nc3ccccc3S1)S2 (configuration not stated) ?
Data returned: inactive

Data request: What was the test verdict on COC(=O)[C@]12CSC[C@H]1C[C@H](c1ccccc1OC)N2 ?
Data returned: inactive

Data request: What was the test verdict on Oc1ccc(-c2nc3ccc(F)cc3s2)cc1 ?
Data returned: inactive

Data request: What was the test verdict on O=C1CC2C(=O)c3ccccc3CC2c2ccccc21 (configuration not stated) ?
Data returned: inactive

Data request: What was the test verdict on CC(=O)OC1CC2(O)C(CCC3(C)C(c4ccc(=O)oc4)CCC32O)C2(C)CCC(O)C=C12 (configuration not stated) ?
Data returned: active

Data request: What was the test verdict on CC(C)(C)c1cc(C(C)(C)C)c2sc(=S)oc2c1O ?
Data returned: inactive

Data request: What was the test verdict on COC(=O)C1CCC(=O)N1C(c1ccc(OC)cc1)c1cc(OC)c(OC)c(OC)c1 (configuration not stated) ?
Data returned: active

Data request: What was the test verdict on O=[N+]([O-])c1cccc(Cl)c1Oc1ccc(S(=O)(=O)N/C(=N\O)Nc2ccc(Cl)cc2)cc1 ?
Data returned: inactive

Data request: What was the test verdict on COc1cc2c3c(c1OC)Oc1ccc(cc1)CC1c4c(cc(OC)c(OC)c4Oc4ccc(cc4)CC3N(C)CC2)CCN1C (configuration not stated) ?
Data returned: inactive

###

Test system: SF-268
Experiment: NCI tumour cell line growth inhibition, 48 h
Active and inactive are the calls of the source. Rule as the data show it: active = GI50 up to about 1.1 µM and inactive = higher.
Parameter: GI50

{"Compound": "O=C(CCC(=O)Nc1ccc(Cl)c(Cl)c1)CC(=O)c1ccc(Cl)cc1", "Parameter": "GI50", "Recorded result": "> 100 µM (inactive)"}
{"Compound": "O=S(=O)(O)c1ccc(Nc2ccnc3cc(Cl)ccc23)cc1", "Parameter": "GI50", "Recorded result": "> 100 µM (inactive)"}
{"Compound": "CC1OC(OC2C(CO)OC(O[C@H]3CC[C@@]4(C)C(=CC[C@H]5[C@@H]6C[C@@H]7O[C@](O)(CC[C@@H](C)COC8OC(CO)C(O)C(O)C8O)[C@@H](C)[C@@H]7[C@@]6(C)CC[C@@H]54)C3)C(OC3OC(C)C(O)C(O)C3O)C2O)C(O)C(O)C1O (stereo partly drawn)", "Parameter": "GI50", "Recorded result": "3.23 µM (inactive)"}
{"Compound": "O=C1C[C@H]2CC3(CC[C@H]2CN1)OCCO3", "Parameter": "GI50", "Recorded result": "> 100 µM (inactive)"}
{"Compound": "Cn1c(=O)c2c(nc3n2CCCC(=O)N3CC(O)CCl)n(C)c1=O (stereo not drawn)", "Parameter": "GI50", "Recorded result": "> 100 µM (inactive)"}

Report GI50 for each item below.
1. CN1CN(C(=O)N2CN(C)C(=O)N(C)C2)CN(C)C1=O
2. COc1ccc(NC(=S)NN=C(C)c2cccc(C(C)=NNC(=S)Nc3ccc(OC)cc3)n2)cc1
3. O=C1/C(=C/c2ccc(F)cc2)CNC/C1=C\c1ccc(F)cc1

Data returned:
1. > 100 µM (inactive)
2. > 100 µM (inactive)
3. 0.818 µM (active)

Numbers sourced from ChEMBL document CHEMBL1201862.
